molecular target: recombinant PRL-3 (Homo sapiens, UniProt O75365); construct: 6xHis (N, cleaved yes); made in house; host or cells: E. coli One Shot BL21 Star; assay: In vitro phosphatase assay (DiFMUP hydrolysis), PRL-3; format: biochemical; details: FDA-approved drug screen; compared to DMSO
Sequence (O75365 whole entry): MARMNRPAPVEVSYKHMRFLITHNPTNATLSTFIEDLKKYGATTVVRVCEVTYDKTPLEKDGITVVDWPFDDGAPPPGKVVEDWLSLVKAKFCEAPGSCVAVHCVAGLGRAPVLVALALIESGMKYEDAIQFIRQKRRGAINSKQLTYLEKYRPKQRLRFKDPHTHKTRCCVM
Where a name gives a salt, the structure may show the parent alone.
endpointLabel: % Phosphatase Activity (compared to DMSO) PRL-3 (%)
State just the number; it will be interpreted in %.

CC(C)(C)CC(C)(C)c1ccc(O)c(Cc2ccc(Cl)cc2Cl)c1: 83
CC(C)NCC(O)c1ccccc1Cl.Cl (stereo not shown) [Clorprenaline HCl]: 75
C=C[C@]1(C)C[C@@H](OC(=O)CS[C@@H]2C[C@H]3CC[C@@H](C2)N3C)[C@]2(C)[C@H](C)CC[C@]3(CCC(=O)[C@H]32)[C@@H](C)[C@@H]1O: 67
CCCCOc1ccc(CC(=O)NO)cc1: 91
C[C@H](NCc1ccc(OCc2cccc(F)c2)cc1)C(N)=O [Safinamide Mesylate]: 86
CC(C)OC(=O)C(C(=O)OC(C)C)=C1SC=CS1 [Malotilate]: 61
COc1ccc(O)cc1: 85
C[N+]1(C)[C@@H]2CC[C@H]1C[C@@H](OC(=O)C(O)c1ccccc1)C2 (stereo partly shown) [Homatropine Methylbromide]: 95

Please look up its % Phosphatase Activity (compared to DMSO) PRL-3: `CO[C@H]1C(=O)[C@]2(C)[C@@H](OC)C[C@H]3OC[C@@]3(OC(C)=O)[C@H]2[C@H](OC(=O)c2ccccc2)[C@]2(O)C[C@H](OC(=O)[C@H](O)[C@@H](NC(=O)OC(C)(C)C)c3ccccc3)C(C)=C1C2(C)C` 89

====

molecular target: recombinant PRL-2 (Homo sapiens, UniProt Q12974); construct: 6xHis (N, cleaved yes); made in house; host or cells: E. coli One Shot BL21 Star; experiment: In vitro phosphatase assay (DiFMUP hydrolysis), PRL-2; type: biochemical; settings: 2.5 µM protein, DiFMUP at KM; read-out: Calculated IC50, PRL-2 phosphatase activity
endpointLabel: pIC50
pIC50 field: float, defined as -log10 of concentration (mol/L).

Sample records with pIC50:
Oc1c(Cl)cc(Cl)cc1Sc1cc(Cl)cc(Cl)c1O [Bithionol, reference compound]: 3.94
CCCCC(CC)COC(=O)CC(C(=O)OCC(CC)CCCC)S(=O)(=O)O (stereo not shown) [Docusate Sodium, reference compound]: 3.85
COCCn1c2c([n+](Cc3cnccn3)c1C)C(=O)c1ccccc1C2=O [YM155, reference compound]: 6.15

// next entry
So what does the record say about pIC50 for Cc1cc(C(C#N)c2ccc(Cl)cc2)c(Cl)cc1NC(=O)c1cc(I)cc(I)c1O (stereo not shown) [Closantel, reference compound] ? 4.85

====

target: recombinant PRL-1 (Homo sapiens, UniProt Q93096); construct: 6xHis (N, cleaved yes); made in house; host or cells: E. coli One Shot BL21 Star; assay: In vitro phosphatase assay (DiFMUP hydrolysis), PRL-1; format: biochemical; conditions: FDA-approved drug screen; compared to DMSO
Sequence (Q93096 whole entry): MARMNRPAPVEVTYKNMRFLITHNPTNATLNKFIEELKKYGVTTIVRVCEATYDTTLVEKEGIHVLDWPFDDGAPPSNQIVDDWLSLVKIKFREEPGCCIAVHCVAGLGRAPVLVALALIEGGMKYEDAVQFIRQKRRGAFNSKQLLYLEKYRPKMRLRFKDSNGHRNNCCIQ
Structures can show the parent of a compound that is named as a salt.
Reported % Phosphatase Activity (compared to DMSO) PRL-1 values for a set of compounds
The answer is to be given in %; state only the numeric part.

I am curious: what % Phosphatase Activity (compared to DMSO) PRL-1 value has been reported for Clc1ccc(COC(Cn2ccnc2)c2ccc(Cl)cc2Cl)c(Cl)c1 (centres unmarked) [Miconazole] ? 109

Same again, this time with Cc1ccc(Nc2nccc(N(C)c3ccc4c(C)n(C)nc4c3)n2)cc1S(N)(=O)=O.Cl [Pazopanib HCl] 86

Note, next up: Clc1ccc(C(Cn2ccnc2)OCc2c(Cl)cccc2Cl)c(Cl)c1 (centres unmarked) [Isoconazole nitrate] 112

Would you kindly repeat that for O[C@H]1[C@H](O)[C@@H](O)[C@H](O)[C@@H](O)[C@H]1O [i-Inositol] ? 94

Also C[C@H](Oc1ccc(S(C)(=O)=O)cc1C(=O)N1CCN(c2ncc(C(F)(F)F)cc2F)CC1)C(F)(F)F [Bitopertin] ? 93

# repeat for CC12CC3CC(C)(C1)CC(N)(C3)C2 [Memantine HCl] 83

Also need CCN(c1cc(-c2ccc(CN3CCOCC3)cc2)cc(C(=O)NCc2c(C)cc(C)[nH]c2=O)c1C)C1CCOCC1 [EPZ-6438] , thanks. 85

# iterate: CCN(CC)CCOC(=O)c1ccc(N)cc1 [Procaine HCl] 108

====

The entries below come with measured % Phosphatase Activity (compared to DMSO) PRL-1 values attached.
biological target: recombinant PRL-1 (Homo sapiens); construct: 6xHis (N, cleaved yes); made in house; host or cells: E. coli One Shot BL21 Star; assay: In vitro phosphatase assay (DiFMUP hydrolysis), PRL-1; assay type: biochemical
Structures can show the parent of a compound that is named as a salt.
The reply should be a number in %, with the unit left off.

The examples below pair each entry with its known result.
CS(=O)(=O)CCNCc1ccc(-c2ccc3ncnc(Nc4ccc(OCc5cccc(F)c5)c(Cl)c4)c3c2)o1.Cc1ccc(S(=O)(=O)O)cc1.Cc1ccc(S(=O)(=O)O)cc1 [Lapatinib (GW-572016) Ditosylate]: 212
CCCc1cc(=O)[nH]c(=S)[nH]1: 94
Cl.Cl.O=C(O)COCCN1CCN(C(c2ccccc2)c2ccc(Cl)cc2)CC1 (stereo not shown) [Cetirizine DiHCl]: 92
CS(=O)(=O)Nc1ccc([N+](=O)[O-])cc1Oc1ccccc1 [Nimesulide]: 78
O=C(O[C@H]1C[N+]2(CCCOc3ccccc3)CCC1CC2)C(O)(c1cccs1)c1cccs1 [Aclidinium Bromide]: 106
Cc1c(-c2cnccn2)ssc1=S: 90
O=C([O-])c1ccccc1O.[Na+] [Sodium salicylate]: 130
Cl.N[C@@H]1C[C@H]1c1ccccc1 (racemic) [Tranylcypromine (2-PCPA) HCl]: 111

I have this molecule here, Cc1cccc(C(C)c2cnc[nH]2)c1C (stereo not shown) [Medetomidine HCl] , and I need its recorded % Phosphatase Activity (compared to DMSO) PRL-1. 109

Next molecule up: C#CCN[C@@H]1CCc2ccccc21 [Rasagiline Mesylate] 116

Consider next the molecule CCCCc1oc2ccccc2c1C(=O)c1cc(I)c(OCCN(CC)CC)c(I)c1 [Amiodarone HCl] in the same way. 97

Likewise for `C[C@]12Cc3c[nH]nc3C[C@@H]1CC[C@@H]1[C@@H]2CC[C@@]2(C)[C@H]1CC[C@]2(C)O` ? 89

And for `COC(=O)[C@H](c1ccccc1Cl)N1CCc2sccc2C1` ? 100

Repeat for the following molecule: CNC[C@H](O)c1ccc(O)c(O)c1 [Epinephrine Bitartrate] 116

Entry to check: OCCOCCN1CCN(C2=Nc3ccccc3Sc3ccccc32)CC1 [Quetiapine Fumarate] 80

Repeat for the following molecule: CNCCCC12CCC(c3ccccc31)c1ccccc12 [Maprotiline HCl] 127

====

target: recombinant PRL-2 (Homo sapiens, UniProt Q12974); construct: 6xHis (N, cleaved yes); made in house; host or cells: E. coli One Shot BL21 Star; assay: In vitro phosphatase assay (DiFMUP hydrolysis), PRL-2; assay type: biochemical; settings: FDA-approved drug screen; compared to DMSO;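 also: PRL-2 activity read as DiFMUP hydrolysis after 20 min at room temperature with drug, enzyme first pre-reduced at 4 °C for 20 min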
Each entry below carries its recorded % Phosphatase Activity (compared to DMSO) PRL-2.
The reply should be a number in %, with the unit left off.

Consider the following illustrative entries.
CC[N+](CC)(CC)CCOc1cccc(OCC[N+](CC)(CC)CC)c1OCC[N+](CC)(CC)CC [Gallamine Triethiodide]: 105
C[C@H](N)[C@H](O)c1cccc(O)c1 [Metaraminol Bitartrate]: 106
CC(C)c1nc(CN(C)C(=O)N[C@H](C(=O)N[C@@H](Cc2ccccc2)C[C@H](O)[C@H](Cc2ccccc2)NC(=O)OCc2cncs2)C(C)C)cs1: 108
Cc1cc(=O)n(-c2ccccc2)n1C [Antipyrine]: 107
COc1ccc([C@H]2CNC(=O)C2)cc1OC1CCCC1 [S- (+)-Rolipram]: 110
C[N+]1(C)CCCC(OC(=O)C(O)(c2ccccc2)c2ccccc2)C1 (centres unmarked) [Mepenzolate Bromide]: 93
O=C1Nc2ccc(Cl)cc2[C@@](C#CC2CC2)(C(F)(F)F)O1: 72

Attention now turns to another entry.
Given the entry NS(=O)(=O)c1cc2c(cc1Cl)N=CNS2(=O)=O [Chlorothiazide] , report its measured % Phosphatase Activity (compared to DMSO) PRL-2. 80

====

Biological target: recombinant PRL-2 (Homo sapiens, UniProt Q12974)
Construct: 6xHis (N, cleaved yes); made in house; host or cells: E. coli One Shot BL21 Star
Sequence (Q12974 1-167): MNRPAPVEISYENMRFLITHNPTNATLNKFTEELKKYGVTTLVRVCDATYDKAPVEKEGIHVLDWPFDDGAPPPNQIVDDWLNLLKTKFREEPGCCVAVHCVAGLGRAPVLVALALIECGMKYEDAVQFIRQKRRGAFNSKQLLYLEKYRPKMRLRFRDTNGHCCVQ
Experiment: In vitro phosphatase assay (DiFMUP hydrolysis), PRL-2
Format: biochemical
Settings: FDA-approved drug screen; compared to DMSO
// % Phosphatase Activity (compared to DMSO) PRL-2 lookup, one value per entry
Hi, when you answer, please include the unit after the number. Thanks!

// known answers, use as guide
CN1CCN(CCOc2cc(OC3CCOCC3)c3c(Nc4c(Cl)ccc5c4OCO5)ncnc3c2)CC1: 98%
CC(C)(O/N=C(\C(=O)N[C@@H]1C(=O)N2C(C(=O)[O-])=C(C[n+]3ccccc3)CS[C@H]12)c1csc(N)n1)C(=O)O [Ceftazidime Pentahydrate]: 106%
Nc1ccccc1NC(=O)c1ccc(CNc2nccc(-c3cccnc3)n2)cc1: 108%

// below: % Phosphatase Activity (compared to DMSO) PRL-2 requested for another compound
Recorded % Phosphatase Activity (compared to DMSO) PRL-2 of COc1ccc(C[C@H](N)C(=O)N[C@H]2[C@@H](O)[C@H](n3cnc4c(N(C)C)ncnc43)O[C@@H]2CO)cc1.Cl.Cl [Puromycin 2HCl] , please. 101%

# credit: paper PMC8119466
